# pIC50 against UniProtKB P04746, merged from multiple literature sources
Scale note: pIC50 = -log10(concentration in M).

Take a look at these entries with their results.
Problem: Report measured pIC50 on UniProtKB P04746; entry: `COc1cc2oc3cc(O)c(OC)c(CC=C(C)C)c3c(=O)c2c(O)c1/C=C\C(C)(C)O`
Result: 4.39

Problem: Report measured pIC50 on UniProtKB P04746; entry: `O=c1oc2c(O)c(O)cc3c(=O)oc4c(O)c(O)cc1c4c23`
Result: 4.53

Problem: Report measured pIC50 on UniProtKB P04746; entry: `O=C(OC[C@H]1O[C@@H](Oc2c(-c3cc(O)c(O)c(O)c3)oc3cc(O[C@@H]4O[C@H](CO)[C@@H](O)[C@H](O)[C@H]4O)cc(O)c3c2=O)[C@H](O)[C@@H](O)[C@@H]1O)c1cc(O)c(O)c(O)c1`
Result: 3.70

Next:
Problem: Report measured pIC50 on UniProtKB P04746; entry: O=C(c1cc(O)c(O)cc1O)c1c(O)cc(O)cc1OC1OC(CO)C(O)C(O)C1O (stereo not shown)
Result: 5.15
